IC50 for assorted compounds
Molecular target: Phospholipase A2 (Homo sapiens);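 further: confirmatory dose-response counterscreen on phospholipase A2, testing hits that came from an ultra-high-throughput screen for ATG4B inhibitors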
Sequence (P04054 whole entry): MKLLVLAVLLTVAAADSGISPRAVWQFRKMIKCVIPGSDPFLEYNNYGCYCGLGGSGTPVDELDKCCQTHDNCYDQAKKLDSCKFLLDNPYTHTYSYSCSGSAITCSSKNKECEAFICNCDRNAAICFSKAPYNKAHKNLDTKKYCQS
Format: functional
The source made the active and inactive calls.
readout: IC50

smiles representation	assay result
O=C(CCCN1C(=O)/C(=C/c2ccccc2Cl)SC1=S)NNC(=O)c1ccccc1	5.28 µM (active)
CC(C)(C)C(=O)Nc1nnc(CSCc2ccccc2F)s1	6.65 µM (active)
CN(C)c1ccc(-c2nnn(Cc3ccccc3Br)n2)cc1	7.95 µM (active)
CCCOc1ccc2ccccc2c1/C=C1\SC(=O)NC1=O	15.9 µM (active)

###

EC50 for assorted compounds
Target: Zinc finger protein mex-5 (Caenorhabditis elegans)
Sequence (Q9XUB2 whole entry): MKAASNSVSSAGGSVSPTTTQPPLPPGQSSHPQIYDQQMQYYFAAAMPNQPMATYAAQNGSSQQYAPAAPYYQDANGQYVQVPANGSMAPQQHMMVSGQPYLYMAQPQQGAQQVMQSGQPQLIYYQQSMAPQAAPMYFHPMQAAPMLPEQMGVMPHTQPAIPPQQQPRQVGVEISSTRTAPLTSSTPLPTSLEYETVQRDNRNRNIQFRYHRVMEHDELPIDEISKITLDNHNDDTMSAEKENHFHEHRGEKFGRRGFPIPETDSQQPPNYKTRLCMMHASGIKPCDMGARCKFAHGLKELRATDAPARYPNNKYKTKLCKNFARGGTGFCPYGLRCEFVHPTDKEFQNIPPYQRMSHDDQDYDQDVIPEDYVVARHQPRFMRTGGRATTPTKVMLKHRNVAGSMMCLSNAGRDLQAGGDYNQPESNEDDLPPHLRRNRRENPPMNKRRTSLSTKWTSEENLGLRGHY
Assay: MEX-5/TCR-2 RNA interaction inhibitors, dose response, biochemical, C. elegans, fluorescence polarization (AID 1960)
Active and inactive are the calls of the source.

compound	EC50
COC(=O)[C@@H]1[C@H]2C[C@H]3c4[nH]c5ccccc5c4CCN3C[C@@H]2CC[C@@H]1O	103 µM (active)
COc1ccc(CCCc2nc3ccccc3[nH]2)cc1	> 300 µM (not active)
CC1(C)CC(=O)C2=C(C1)OC(N)=C(C#N)C2c1ccccc1 (configuration not stated)	> 300 µM (not active)
Cc1c2ccccc2nc2c(F)c(NC(C)C)c(F)c(F)c12	> 300 µM (not active)
O=c1[nH]c2c(s1)C=Nc1ccccc1N2	1.23 µM (inconclusive)
CCOCCCn1/c(=N/C(=O)c2cccs2)c(C#N)cc2c(=O)n3ccccc3nc21	40 µM (inconclusive)
Cc1ccc(N2C(=O)NC(=O)/C(=C\c3cc(C)n(-c4ccc(C(=O)O)cc4)c3C)C2=O)cc1	6.96 µM (active)

###

Assay: Luminescence Cell-Based Dose Retest to Confirm Inhibitors of Cancer Stem Cells. [Related pubchem assays (depositor defined):AID2717, AID2721]
Assay type: functional
Settings: Homo sapiens
The source made the active and inactive calls.
readout: AC50

molecule	assay result
CCCNC(=O)c1onc(CSc2ccc(Cl)cc2)c1C(=O)NCCC(C)C	1930 nM (active)
CN(CCO)c1cc(Sc2nc3ccccc3s2)c2nonc2c1[N+](=O)[O-]	1620 nM (active)
O=C1C=C(Nc2ccc(F)cc2)c2ccccc2C1=O	3190 nM (active)
CCCCCNCC(=O)Nc1cccc(C(=O)Nc2cccc(C(F)(F)F)c2)c1	9980 nM (active)
CC1=CC(C)[C@H](/C=N/n2c(=O)[nH]c3c([nH]c4ccc(Br)cc43)c2=O)C(C)C1 (stereo not given in full)	876 nM (active)

###

Biological target: Corticotropin-releasing factor receptor 2/Corticotropin-releasing factor-binding protein (Homo sapiens, UniProt P24387+Q13324)
Sequence (Q13324 whole entry): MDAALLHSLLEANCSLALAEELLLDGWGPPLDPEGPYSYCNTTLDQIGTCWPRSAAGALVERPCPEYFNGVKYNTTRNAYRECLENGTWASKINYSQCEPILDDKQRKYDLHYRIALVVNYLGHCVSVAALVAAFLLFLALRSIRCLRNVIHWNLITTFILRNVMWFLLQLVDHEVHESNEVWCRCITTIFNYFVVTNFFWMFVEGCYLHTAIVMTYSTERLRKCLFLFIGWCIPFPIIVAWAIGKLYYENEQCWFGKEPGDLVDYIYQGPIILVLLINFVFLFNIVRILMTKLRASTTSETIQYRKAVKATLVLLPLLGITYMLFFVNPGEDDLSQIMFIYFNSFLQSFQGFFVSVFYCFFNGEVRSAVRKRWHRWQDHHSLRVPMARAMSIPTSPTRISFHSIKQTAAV
Sequence (P24387 whole entry): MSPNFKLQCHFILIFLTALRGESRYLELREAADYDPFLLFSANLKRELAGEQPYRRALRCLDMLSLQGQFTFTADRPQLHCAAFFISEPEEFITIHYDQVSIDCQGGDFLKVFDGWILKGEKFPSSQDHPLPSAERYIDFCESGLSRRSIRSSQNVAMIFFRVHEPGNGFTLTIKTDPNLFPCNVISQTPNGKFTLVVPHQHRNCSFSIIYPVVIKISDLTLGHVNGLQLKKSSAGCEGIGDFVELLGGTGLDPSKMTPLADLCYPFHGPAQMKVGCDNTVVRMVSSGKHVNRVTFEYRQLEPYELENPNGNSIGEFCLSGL
Test: activators of CRF receptor 2 with binding protein – uHTS hits, confirmation (AID 602473)
Type: functional
Conditions: read-out: EC50_Mean
The source made the active and inactive calls.
Possible outcomes: true (1) = active, false (0) = inactive

molecule	assigned label
CC(C)C(NS(=O)(=O)c1ccc2c(c1)oc(=O)n2C)C(=O)N1CCN(C2CCCCC2)CC1 (centres undefined)	false (0)
CN(C)N=C(S)Nc1ccc2nc(-c3ccccn3)c(-c3ccccn3)nc2c1	false (0)
Cc1cccc(NS(=O)(=O)c2cccc(C(=O)N3CCN(c4ccccn4)CC3)c2)c1	false (0)
O=C(Nc1cc(S(=O)(=O)N2CCCCC2)ccc1O)c1ccccc1NS(=O)(=O)c1ccc(F)c(F)c1	true (1)
CCC1OC(=O)C(C)C(OC2C[C@@](C)(OC)C(O)C(C)O2)C(C)C(O[C@@H]2OC(C)CC(N(C)C)C2O)[C@](C)(O)CC(C)C(=NOCOCCOC)C(C)C(O)[C@]1(C)O (some centres undefined)	false (0)
Cc1ccc(-n2c(C)cc(C(=O)CN3C(=O)C(=O)N(C4CCCC4)C3=O)c2C)cc1	false (0)
Cc1ccc(S(=O)(=O)N2c3ccccc3OCC2c2ccccc2)cc1 (centres undefined)	false (0)
CCOC(=O)C(O)(c1ccc(NC(=S)NC(=O)c2ccc(Cl)cc2Cl)cc1)C(F)(F)F (centres undefined)	true (1)
COC(=O)C1=C(C)N(Cc2ccccc2)C(=O)N[C@H]1CCc1ccccc1	false (0)
